Experiment Summary: Selectivity index, ratio of EC50 for rat NRK cells to EC50 for human MOLM13 cells under 2% O2 condition
Format: toxicity
Condition Notes: NRK cells versus MOLM13 cells, read-out: Ratio EC50
Observed Property: selectivity ratio
# answer = number (no unit)

Q. Entry under review: CN1CCN(C(=O)Oc2cccc3c2[n+]([O-])c2cc(Cl)c(Cl)cc2[n+]3[O-])CC1 . Reported selectivity ratio?
A. 45

###

Each item that follows carries a reported pEC50.
Tested on: MOLM-13
Experiment Summary: Cytotoxicity against human MOLM13 cells assessed as reduction in cell viability incubated for 24 hrs under 19% O2 condition by WST-1 assay
Format: functional, cell-based
Condition Notes: MOLM-13, 24 h
Friendly reminder that pEC50 comes from taking -log10 of the concentration in mol/L.

# count of solved cases: 3
CCN(CC)C(=O)COc1cccc2c1[n+]([O-])c1cc(C)c(C)cc1[n+]2[O-]
5.74
CN1CCN(C(=O)Oc2cccc3c2[n+]([O-])c2cccc(O)c2[n+]3[O-])CC1
5.82
CCOC(=O)Oc1cccc2c1[n+]([O-])c1cccc(O)c1[n+]2[O-]
4.30

Q. Notebook: pull reported pEC50 for MOLM-13, entry CCOC(=O)Oc1cccc2c1[n+]([O-])c1cccc(OC(=O)OCC)c1[n+]2[O-]
A. 5.21

Q. Notebook: pull reported pEC50 for MOLM-13, entry [O-][n+]1c2ccccc2[n+]([O-])c2c(O)cccc21
A. 4.96

###

Tested on: H9c2
Experiment Summary: Cytotoxicity against rat H9c2 cells assessed as reduction in cell viability incubated for 24 hrs under 19% O2 condition by Hoechst 33342 staining based microscopic analysis
Condition Notes: H9c2, 24 h
Observed Property: EC50

Q. Notebook: pull reported EC50 for H9c2, entry Nc1n[n+]([O-])c2ccccc2[n+]1[O-]
A. > 100 µM

###

Experiment Summary: Selectivity index, ratio of EC50 for rat NRK cells to EC50 for human MOLM13 cells under 19% O2 condition
Format: toxicity
Condition Notes: NRK cells versus MOLM13 cells, read-out: Ratio EC50
Observed Property: selectivity ratio

Q. Entry under review: CN1CCN(C(=O)Oc2cccc3c2[n+]([O-])c2cc(Cl)c(Cl)cc2[n+]3[O-])CC1 . Reported selectivity ratio?
A. > 30

###

Tested on: MOLM-13
Experiment Summary: Cytotoxicity against human MOLM13 cells assessed as reduction in cell viability incubated for 24 hrs under 19% O2 condition by WST-1 assay
Assay type: functional, cell-based
Condition Notes: MOLM-13, 24 h
Observed Property: EC50

CN1CCN(C(=O)Oc2cccc3c2[n+]([O-])c2cc4ccccc4cc2[n+]3[O-])CC1
2.8 µM

Q. Entry under review: CN(C)C(=O)Oc1cccc2c1[n+]([O-])c1ccccc1[n+]2[O-] . Reported EC50?
A. 1.3 µM

Q. Entry under review: Cc1c(C)[n+]([O-])c2c(O)cccc2[n+]1[O-] . Reported EC50?
A. > 200 µM

###

Experiment Summary: Selectivity index, ratio of EC50 for rat H9c2 cells to EC50 for human MOLM13 cells
Assay type: toxicity
Condition Notes: H9c2 cells versus MOLM13 cells, read-out: Ratio EC50
Each item that follows carries a reported selectivity ratio.

COc1cccc2c1[n+]([O-])c1cccc(OC(=O)N(C)C)c1[n+]2[O-]
> 15

Q. Entry under review: COc1cccc2c1[n+]([O-])c1cccc(OC(=O)N3CCCC3)c1[n+]2[O-] . Reported selectivity ratio?
A. > 15
